Listed next: entries and their corresponding binding normalized to PSGL-1.
measured.target: T1, SulfoCCK biotin peptide (human)
T1 construct: also called sulfotyrosine CCK peptide
T1 peptide: SHRISDRD[sY]MGWMDFGGK(Biotin)
protocol.text: ELISA, 50 nM mAb
Non-standard residues stand in square brackets, D forms with d. No end group written: not given here. *: point of attachment. Biotin = O=C1N[C@H]2[C@H](CS[C@H]2CCCCC(=O)*)N1; sY = N[C@@H](Cc1ccc(OS(=O)(=O)O)cc1)C(=O)O
I only need the number, thanks.

Worked cases, binding normalized to PSGL-1 given:
binder	binding normalized to PSGL-1
06B02 (antibody, IgG4, V domains shown) VH: QVQLVESGPGLVKPSETLSLTCTVSGVSVSSYYWTWVRQSPGKGLEWIGHVHHSGISNYNPSLKSRVVMSVDTSKNYFSLKLRSVTAADTAVYYCARGGPRISPTNWGQGTLVTVSS VL: QPVLTQPPSVSKALRQTATLTCTGNSNNVGYQGATWLRQHQGHPPRLLSYRNNNRPSGISERFSASRSGNTATLTITGLQPDDEADYYCAAWDSSLSAWVFGGGTKLTVL	0.78
05E08 (antibody, IgG4, V domains shown) VH: EVQLVQSGGGVVQPGRSLRLSCAASGFTFSTYAMHWVRQAPGKGLEWVAVISYDGSNKYYADSVKGRFTISRDNSRNTLFLQMNSLRDEDTAVYYCAKRGTMIRGERSLDFWGQGTLVTVSS VL: AIQMTQSPSFLSASVGDRVTITCRASQGINSWLAWYQQKPGTAPNLLIHAASTLQSGVPSRFSGSRSGTEFTLTISSLQPEDFATYYCQQLQSYPLTFGQGTRLEIK	0.85
05H03 (antibody, IgG4, V domains shown) VH: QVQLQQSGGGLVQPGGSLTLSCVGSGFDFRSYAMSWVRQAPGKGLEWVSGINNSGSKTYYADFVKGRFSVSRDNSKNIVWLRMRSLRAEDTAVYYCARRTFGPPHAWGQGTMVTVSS VL: DIVMTQSPLSLSVTPGEPASISCRSSQSLLHSNGYKYLDWYLQKPGQSPQLLIYMGSNRASGVPDRFSGSGSGTDFTLKISRVEAEDVGVYYCMQGLQSPLTFGGGTKVEIE	0.74
05D01 (antibody, V domains shown) VH: QVTLRESGGALVQPGGSLRLSCAASGFPLRSNAMTWVRQAPGKGLEWVSDIRGNGASTYYADSVKGRFTISRDDSNNILFLQMNSLRAEDTAVYYCVGHGSSSYWGQGTLVTVSS VL: DVVMTQSPLSLPVTLGQPASISCRSSQSLVYRDGNIYLNWFQQRPGQSPRRLIYKVSNRDSGVPDRFSGSGSGTDFTLKISRVEAEDVGVYYCMQLTHWPPGFAQGTKLEIK	0.3

Here is another binder to look at.
Req: Specify binding normalized to PSGL-1 for 03B01 (antibody, IgG4, V domains shown) VH: QMQLVQSGAEVKKPGASVKVSCRASGYRFSTYAISWVRQAPGQGLEWIGWISTHHGNTKYAQKFQDRVTMTADASTSIAYMELRSLRSDDTAVYYCAAAIGNYWGQGTLVTVSS VL: EIVLTQSPAILSVSPGERASLSCRASQSVSSKLAWYQQKPGQAPRLLIYGASTRATGIPPRFSGSGSGTDFTLTISSLEPEDFAVYYCQQRSNWPLTFGGGTKVEIK and stop.
Resp: 1.14
